Collected protein stability index values appear next to each entry.
B1: INTS3 (parent)
chain: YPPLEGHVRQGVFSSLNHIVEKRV

# Variants of: B1
# test_protocol: protein stability index of a GFP-peptide fusion (GPS, HEK-293T) (PSI 1-6); higher = more stable;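 further: lentivirally expressed fusions sorted by FACS into six bins by GFP to DsRed ratio, PSI derived from sequencing read proportions per bin multiplied by bin number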
# particulars: c terminus: a fixed tail appended

| mutant_id | protein stability index |
| --- | --- |
| I19R | 3.04 |
| S14Q | 3.01 |
| V20C | 2 |
| S15R | 2.12 |
| L4S | 2.58 |
| Q10T | 1.83 |
| Y1G | 3.43 |
| S15P | 1.54 |
| N17P | 2.4 |
| E21F | 2.72 |
| R23L | 1.98 |
| K22P | 3.01 |
| G11H | 2.29 |
| S15G | 2.58 |
| E5Q | 2.02 |
| G6H | 2.98 |
| I19K | 2.37 |
| G6D | 2.81 |
| E21V | 2.48 |
| Q10I | 1.62 |
| S15K | 2.31 |
| Y1P | 3.94 |
| F13K | 3.16 |
| H18S | 2.65 |
| L16A | 3.33 |
| H18W | 1.39 |
| P3I | 3.38 |
| V24F | 1.99 |
| L16G | 3.18 |
| E5S | 1.84 |
| Y1H | 4.07 |
| V20D | 3.13 |
| P3R | 2.63 |
| V24G | 3.08 |
| N17D | 3.07 |
| K22C | 1.43 |
| Q10F | 2.62 |
| V12D | 3.44 |
| K22E | 2.63 |
| E21T | 2.54 |
| P2G | 2.85 |
| V12F | 2.69 |
| G6P | 2.76 |
| Q10W | 1.49 |
| Y1T | 3.94 |
| N17V | 1.99 |
